This collection of values is drawn from the supplement of paper PMC12076712.

target: TNK1 (UniProt Q13470); assay: pIC50, kinobeads binding competition; conditions: cell material: Lysate mix
Sequence (Q13470 whole entry): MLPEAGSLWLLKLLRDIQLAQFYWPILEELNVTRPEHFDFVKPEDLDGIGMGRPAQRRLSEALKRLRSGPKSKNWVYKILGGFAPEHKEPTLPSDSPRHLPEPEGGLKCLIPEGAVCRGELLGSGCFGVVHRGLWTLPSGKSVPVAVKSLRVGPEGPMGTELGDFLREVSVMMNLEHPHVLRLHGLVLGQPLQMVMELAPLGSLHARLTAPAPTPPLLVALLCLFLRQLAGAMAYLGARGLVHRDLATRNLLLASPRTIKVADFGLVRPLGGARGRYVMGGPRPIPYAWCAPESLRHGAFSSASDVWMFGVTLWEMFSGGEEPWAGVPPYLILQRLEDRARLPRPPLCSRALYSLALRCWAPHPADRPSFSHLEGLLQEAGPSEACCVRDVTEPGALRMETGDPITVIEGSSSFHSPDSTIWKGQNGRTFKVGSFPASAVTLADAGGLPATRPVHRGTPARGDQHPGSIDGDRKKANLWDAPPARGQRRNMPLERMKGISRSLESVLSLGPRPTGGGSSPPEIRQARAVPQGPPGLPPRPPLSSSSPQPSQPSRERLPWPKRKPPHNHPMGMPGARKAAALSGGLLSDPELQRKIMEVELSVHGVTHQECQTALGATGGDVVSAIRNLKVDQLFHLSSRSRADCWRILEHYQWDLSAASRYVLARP
Could you label it true (1) if measured pIC50 is 6 or higher, and false (0) otherwise?

| Compound | Measurement target | Class assignment |
| --- | --- | --- |
| O=C(NCCNC(=O)c1cc(Nc2cc(C3CC3)[nH]n2)nc(N2CCN(Cc3ccc(S(=O)(=O)F)cc3)CC2)n1)OC1CC/C=C/CCC1 (stereo unspecified) | TNK1 (UniProt Q13470) | false (0) |
| Cc1cc(Nc2cc(C(=O)NCCNC(=O)OC3CC/C=C/CCC3)nc(N3CCN(Cc4ccc(S(=O)(=O)F)cc4)CC3)n2)n[nH]1 (stereo unspecified) | TNK1 (UniProt Q13470) | false (0) |
| C#CCNC(=O)c1cc(Nc2cc(C3CC3)[nH]n2)nc(N2CCN(Cc3ccc(S(=O)(=O)F)cc3)CC2)n1 | TNK1 (UniProt Q13470) | true (1) |
| C#CCNC(=O)c1cc(Nc2cc(C)[nH]n2)nc(N2CCN(Cc3ccc(S(=O)(=O)F)cc3)CC2)n1 | TNK1 (UniProt Q13470) | true (1) |

pIC50 >= 6 for CCNC(=O)c1cc(Nc2cc(C3CC3)[nH]n2)nc(N2CCN(Cc3ccc(S(=O)(=O)F)cc3)CC2)n1 ?
true (1)

Please indicate if the recorded pIC50 for CCNC(=O)c1cc(Nc2cc(C)[nH]n2)nc(N2CCN(Cc3ccc(S(=O)(=O)F)cc3)CC2)n1 meets or exceeds 6.
true (1)
